System: NCI-H460 (lung large cell)
Test: NCI sulforhodamine B human cancer cell growth inhibition, NCI-H460
Format: cell-based
Settings: in DMSO
Collected Cell line inhibition value GI50 values appear next to each entry.
A number alone suffices; assume µg/mL.

Request: Entry `CCCCCCCCCCC/C=C/[C@@H](O)[C@H](CO[C@@H]1O[C@H](CO)[C@H](O)[C@H](O)[C@H]1O)NC(=O)CCCCCCCCCCCCCCCCC` has what Cell line inhibition value GI50?
Response: 0.49

Request: Would you kindly repeat that for `CCCCCCCCCCC/C=C/[C@@H](O)[C@H](CO[C@@H]1O[C@H](CO)[C@@H](O)[C@H](O)[C@H]1O)NC(=O)CCCCCCCCCCCCCCC` ?
Response: 0.34

Request: Would you kindly repeat that for `CCCCCCCCCCC/C=C/[C@@H](O)[C@H](CO[C@@H]1O[C@H](CO)[C@H](O)[C@H](O)[C@H]1O)NC(=O)CCCCCCCCCCCCCCC` ?
Response: 0.55

Request: Would you kindly repeat that for `CCCCCCCCCCC/C=C/[C@@H](O)[C@H](CO[C@@H]1O[C@H](CO)[C@@H](O)[C@H](O)[C@H]1O)NC(=O)CCCCCCCCCCCCCCCCC` ?
Response: 0.53

###

System: MCF-7 (breast adenocarcinoma)
Experiment: NCI sulforhodamine B human cancer cell growth inhibition, MCF-7
Format: cell-based
Settings: in DMSO
observedProperty: Cell line inhibition value GI50
Answer with the number, then the unit.

Request: Entry `CCCCCCCCCCC/C=C/[C@@H](O)[C@H](CO[C@@H]1O[C@H](CO)[C@H](O)[C@H](O)[C@H]1O)NC(=O)CCCCCCCCCCCCCCCCC` has what Cell line inhibition value GI50?
Response: 0.44 µg/mL

###

Tested on: DU-145 (prostate carcinoma)
Assay: NCI sulforhodamine B human cancer cell growth inhibition, DU-145
Format: cell-based
Conditions: in DMSO
observedProperty: Cell line inhibition value GI50 (µg/mL)
A number alone suffices; assume µg/mL.

As a guide, the following entries are already answered.
CCCCCCCCCCC/C=C/[C@@H](O)[C@H](CO[C@@H]1O[C@H](CO)[C@H](O)[C@H](O)[C@H]1O)NC(=O)CCCCCCCCCCCCCCC: 2.6
CCCCCCCCCCC/C=C/[C@@H](O)[C@H](CO[C@@H]1O[C@H](CO)[C@H](O)[C@H](O)[C@H]1O)NC(=O)CCCCCCCCCCCCCCCCC: 2.6
CCCCCCCCCCC/C=C/[C@@H](O)[C@H](CO[C@@H]1O[C@H](CO)[C@@H](O)[C@H](O)[C@H]1O)NC(=O)CCCCCCCCCCCCCCCCC: 1.7

Note: attention shifts to another entry.
Request: Entry `CCCCCCCCCCC/C=C/[C@@H](O)[C@H](CO[C@@H]1O[C@H](CO)[C@@H](O)[C@H](O)[C@H]1O)NC(=O)CCCCCCCCCCCCCCC` has what Cell line inhibition value GI50?
Response: 1.6

###

Tested on: MCF-7 (breast adenocarcinoma)
Experiment: NCI sulforhodamine B human cancer cell growth inhibition, MCF-7
Format: cell-based
Conditions: in DMSO
observedProperty: Cell line inhibition value GI50 (µg/mL)
A number alone suffices; assume µg/mL.

CCCCCCCCCCC/C=C/[C@@H](O)[C@H](CO[C@@H]1O[C@H](CO)[C@@H](O)[C@H](O)[C@H]1O)NC(=O)CCCCCCCCCCCCCCC [Compound 1]: 0.44
CCCCCCCCCCC/C=C/[C@@H](O)[C@H](CO[C@@H]1O[C@H](CO)[C@H](O)[C@H](O)[C@H]1O)NC(=O)CCCCCCCCCCCCCCC [Compound 3]: 0.48

Request: Entry CCCCCCCCCCC/C=C/[C@@H](O)[C@H](CO[C@@H]1O[C@H](CO)[C@@H](O)[C@H](O)[C@H]1O)NC(=O)CCCCCCCCCCCCCCCCC [Compound 2] has what Cell line inhibition value GI50?
Response: 0.39

Measured values drawn from patent US8053416B2 for this set.
